Measured values drawn from PubChem BioAssay AID1963865 for this set.

System: KRAS PDC multicell spheroid viability;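 further: spheroids exposed to compounds for 7 days; 100% = DMSO vehicle control viability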
Assay: Anticancer human tumor 825966-067-R-J1-PDC patient-derived colon carcinoma cell line growth inhibition [KRAS2]
Conditions: second compound 10 µM; first compound 10 µM; active compounds read low
Source text: Multicellular complex tumor spheroid response to RAS pathway inhibitors in combination with a targeted agents in patient-derived cell lines with oncogenic KRAS variants from multiple cancer types A high-throughput screen of multi-cell type tumor spheroids was designed to identify active combinations of targeted small molecules and KRAS pathway inhibitors. […] Compounds. […] If the clinical Cmax for an agent had not been determined, the highest concentration tested was 10 microM. […]
quantity_kind: viability, T/C (%)
The reply should be a number in %, with the unit left off.

Solved cases below.
Cn1nccc1Nc1nccc(-c2cc3c(s2)C(C)(C)N(CCN2CCOCC2)C3=O)n1 + CNCc1ccccc1-c1csc(C(C)Nc2nc(C)nc3cc(OC)c(OC)cc23)c1 ... 0.24
COC(=O)c1ccc2c(C(=Nc3ccc(N(C)C(=O)CN4CCN(C)CC4)cc3)c3ccccc3)c(O)[nH]c2c1 + CNCc1ccccc1-c1csc(C(C)Nc2nc(C)nc3cc(OC)c(OC)cc23)c1 ... 0.26
O=C(c1cc(Cc2n[nH]c(=O)c3ccccc23)ccc1F)N1CCN(C(=O)C2CC2)CC1 + COc1cc2nc(C)nc(NC(C)c3cc(N)cc(C(F)(F)F)c3)c2cc1OC1CCOC1 ... 89.5
CC(C)NCC(C(=O)N1CCN(c2ncnc3c2C(C)CC3O)CC1)c1ccc(Cl)cc1 (stereo unspecified) + CNCc1ccccc1-c1csc(C(C)Nc2nc(C)nc3cc(OC)c(OC)cc23)c1 ... 0.91
COC(=O)c1ccc2c(C(=Nc3ccc(N(C)C(=O)CN4CCN(C)CC4)cc3)c3ccccc3)c(O)[nH]c2c1 + CC1OCC2(CCN(c3cnc(Sc4ccnc(N)c4Cl)c(N)n3)CC2)C1N ... 0.32
CC1OCC2(CCN(c3cnc(Sc4ccnc(N)c4Cl)c(N)n3)CC2)C1N (stereo unspecified) + C=CC(=O)N1CCN(c2nc(=O)n(-c3c(C)ccnc3C(C)C)c3nc(-c4c(O)cccc4F)c(F)cc23)C(C)C1 ... 4.36
COc1cc(Nc2ncc3c(n2)-c2ccc(Cl)cc2C(c2c(F)cccc2OC)=NC3)ccc1C(=O)O + COc1cc2nc(C)nc(NC(C)c3cc(N)cc(C(F)(F)F)c3)c2cc1OC1CCOC1 ... 1.44
COc1cc2nccc(Oc3ccc(NC(=O)C4(C(=O)Nc5ccc(F)cc5)CC4)cc3)c2cc1OC + CC1OCC2(CCN(c3cnc(Sc4ccnc(N)c4Cl)c(N)n3)CC2)C1N ... 0.8
O=C(c1cc(Cc2n[nH]c(=O)c3ccccc23)ccc1F)N1CCN(C(=O)C2CC2)CC1 + C=CC(=O)N1CCN(c2nc(=O)n(-c3c(C)ccnc3C(C)C)c3nc(-c4c(O)cccc4F)c(F)cc23)C(C)C1 ... 91.7
CCNC(=O)CC1N=C(c2ccc(Cl)cc2)c2cc(OC)ccc2-n2c(C)nnc21 (stereo unspecified) + C=CC(=O)N1CCN(c2nc(=O)n(-c3c(C)ccnc3C(C)C)c3nc(-c4c(O)cccc4F)c(F)cc23)C(C)C1 ... 36.9

Continue with the next compound.
Query: viability, T/C; subject: CC(C)NCC(C(=O)N1CCN(c2ncnc3c2C(C)CC3O)CC1)c1ccc(Cl)cc1 (stereo unspecified) + C=CC(=O)N1CCN(c2nc(=O)n(-c3c(C)ccnc3C(C)C)c3nc(-c4c(O)cccc4F)c(F)cc23)C(C)C1
2.19
